Cited source: paper PMC4755760

assayed-system: T1, CTD^313–448 of human LPL (human, UniProt P06858 340-475)
T1 construct: lipoprotein lipase (LPL), human, C-terminal domain, residues 313-448; numbers count on: the mature protein; the printed surface densities (85 RU ~ 5 fmols/mm^2) fit about 17 kDa, that is a CTD without the tag (surmise); also called LPL CTD; C-terminal domain of LPL; source: Drosophila S2 cells, secreted as RS-DIII-ent-CTD, purified (anti-uPAR mAb R24 column)
T1 sequence (looked up): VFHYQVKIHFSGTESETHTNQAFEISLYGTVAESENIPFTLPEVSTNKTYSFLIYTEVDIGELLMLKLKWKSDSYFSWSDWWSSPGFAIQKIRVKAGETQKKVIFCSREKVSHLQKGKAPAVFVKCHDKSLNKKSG
assay-explanation: SPR; Biacore T200, CM4 chip; LPL CTD captured on immobilised mAb 5D2 (~100–200 RU), GPIHBP1 as analyte 8 nM to 4 µM; 20°C; 10 mM HEPES, 150 mM NaCl, 3 mM EDTA (pH 7.4), 0.05% P20; single- and multi-cycle kinetics, global fit to a 1:1 model
assay-setup: both partners purified
parameter-measured: Kd (nM)
Output spec: scalar in nM, unitless text.

Inquiry: # get_value(readout='Kd', item= GPIHBP1^1–131/R38G (domain or fragment, human, UniProt Q8IV16 21-151, looked up, numbers count on: the mature protein; Monomeric by SEC; Carries a single N-linked glycan; also called soluble human GPIHBP1; not shown: uPAR domain III (DIII), N-terminal, cleaved) QTQQEEEEEDEDHGPDDYDEEDEDEVEEEETNRLPGGGSRVLLRCYTCKSLPRDERCNLTQNCSHGQTCTTLIAHGNTESGLLTTHSTWCTDSCQPITKTVEGTQVTMTCCQSSLCNVPPWQSSRVQDPTG )
Reply text: 120

Inquiry: For the binder shown here, GPIHBP1^1–131/R38G N-gly (domain or fragment, human, UniProt Q8IV16 21-151, looked up, the single N-linked glycan removed with N-glycanase, numbers count on: the mature protein; As m1 after removal of the N-glycan; source: Drosophila S2 cells, purified, then incubated overnight at 37°C with N-glycanase under native conditions; not shown: uPAR domain III (DIII), N-terminal, cleaved) QTQQEEEEEDEDHGPDDYDEEDEDEVEEEETNRLPGGGSRVLLRCYTCKSLPRDERCNLTQNCSHGQTCTTLIAHGNTESGLLTTHSTWCTDSCQPITKTVEGTQVTMTCCQSSLCNVPPWQSSRVQDPTG , give the reported Kd.
Reply text: 150

Inquiry: So what's the measured Kd for this one? GPIHBP1^34–131/R38G (domain or fragment, human, UniProt Q8IV16 54-151, looked up, numbers count on: the mature protein; Monomeric by SEC; also called truncated GPIHBP1 lacking the acidic domain; isolated LU domain; source: Drosophila S2 cells; not shown: uPAR domain III (DIII), N-terminal, cleaved) LPGGGSRVLLRCYTCKSLPRDERCNLTQNCSHGQTCTTLIAHGNTESGLLTTHSTWCTDSCQPITKTVEGTQVTMTCCQSSLCNVPPWQSSRVQDPTG
Reply text: 1410

Inquiry: // Kd lookup, key: GPIHBP1^1–131 (domain or fragment, human, UniProt Q8IV16 21-151, looked up, numbers count on: the mature protein; not shown: uPAR domain III (DIII), N-terminal, cleaved) QTQQEEEEEDEDHGPDDYDEEDEDEVEEEETNRLPGGRSRVLLRCYTCKSLPRDERCNLTQNCSHGQTCTTLIAHGNTESGLLTTHSTWCTDSCQPITKTVEGTQVTMTCCQSSLCNVPPWQSSRVQDPTG
Reply text: 290
